Values were extracted from paper PMC4355590.

test: Stability in human plasma: short-term, freeze-thaw and long-term; assay type: in vitro ADME; conditions: Long-term; low level
Measurement Name: RE (%)

O=c1ccc2ccccc2o1 :: -9.71
C=C1C[C@@]23CC[C@H]4[C@@](C)(CCC[C@@]4(C)C(=O)O)[C@@H]2CC[C@@H]1C3 :: -11.70

[a] O=C(O)/C=C/c1ccccc1O
[b] O=c1ccc2ccc(O)cc2o1 [7-HCOU, 7-hydroxycoumarin]
## Task Between the entries labelled a and b , which has a larger RE value on record? Mark your answer with the label of the selected entry.
## Result b
(b: -6.19%, a: -10.20%)

---

assay: Pharmacokinetic study: volunteers orally received 60 mL of guaco syrup spiked with 1500 mg of COU, plasma by HPLC-MS/MS; assay type: in vivo, human; conditions: both sexes, human, plasma, po, 1500 mg, human plasma, 60 mL guaco syrup spiked with 1500 mg coumarin, n = 5, mean ± S.D.
Measurement Name: half-life

## Task Looking for the measured half-life of O=c1ccc2ccccc2o1 , can you help?
## Result ~4 h

## Task Looking for the measured half-life of O=C(O)/C=C/c1ccccc1O , can you help?
## Result ~3 h

## Task Looking for the measured half-life of O=c1ccc2ccc(O)cc2o1 [7-HCOU, 7-hydroxycoumarin] , can you help?
## Result ~1 h
